# testedTarget: T1, human NMI (N-myc Interacting protein) (human, UniProt Q13287 1-307, limits assumed)
# T1 construct: Immunogen and ELISA coating antigen; also called hNMI; antigen 1
# T1 sequence (looked up): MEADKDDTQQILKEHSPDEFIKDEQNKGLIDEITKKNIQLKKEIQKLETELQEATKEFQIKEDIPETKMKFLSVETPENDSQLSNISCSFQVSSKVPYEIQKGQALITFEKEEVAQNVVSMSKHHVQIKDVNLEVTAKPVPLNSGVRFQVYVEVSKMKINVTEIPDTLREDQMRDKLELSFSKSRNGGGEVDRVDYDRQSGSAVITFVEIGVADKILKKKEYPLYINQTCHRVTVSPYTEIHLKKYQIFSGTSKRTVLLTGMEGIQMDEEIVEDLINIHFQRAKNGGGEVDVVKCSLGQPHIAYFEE
# measurementProtocol: I-ELISA, hNMI coated 1 ug/mL; antibody 625 ng/mL
experimentalReadout: OD450 (OD450)
Answer in OD450, number only, no unit symbol.

Entry 240B10-1 (antibody, V domains shown, Rabbit monoclonal antibody; also called 240B10-1-biotin (biotin-labelled form)) VH: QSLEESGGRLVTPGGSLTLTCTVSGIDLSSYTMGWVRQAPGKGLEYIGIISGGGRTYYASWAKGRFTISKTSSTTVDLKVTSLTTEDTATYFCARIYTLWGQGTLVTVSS VL: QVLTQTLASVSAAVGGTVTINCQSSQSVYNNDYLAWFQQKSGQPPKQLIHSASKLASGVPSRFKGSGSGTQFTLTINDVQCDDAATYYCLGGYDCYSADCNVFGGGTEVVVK — recorded OD450 = 2.2
